tested on: U-937; test: In vitro inhibitory concentration required to inhibit the growth of U937 cells was determined at 10 hr by mitotic block reversibility assay; format: functional; details: Homo sapiens, U-937, 10 h
Assay Endpoint: IC99
Please answer using the number first and the unit second.

Query: State the recorded IC99 for this entry: C=C1C[C@@H]2CC[C@@]34C[C@@H]5O[C@@H]6C(O[C@H]7CC[C@H](CC(=O)C[C@@H]8[C@@H](OC)[C@@H](C[C@H](O)CN9CCOCC9)O[C@H]8C[C@H]8O[C@@H](CC[C@@H]1O2)C[C@@H](C)C8=C)O[C@@H]7[C@@H]6O3)[C@H]5O4
Result: 0.02 µM

Query: State the recorded IC99 for this entry: C=C1C[C@@H]2CC[C@@]34C[C@@H]5O[C@@H]6C(O[C@H]7CC[C@H](CC(=O)C[C@@H]8[C@@H](OC)[C@@H](CCO)O[C@H]8C[C@H]8O[C@@H](CC[C@@H]1O2)C[C@@H](C)C8=C)O[C@@H]7[C@@H]6O3)[C@H]5O4
Result: 0.1 µM

# map each molecule to its IC99
1. C=C1C[C@@H]2CC[C@@]34C[C@@H]5O[C@@H]6C(O[C@H]7CC[C@H](CC(=O)C[C@@H]8[C@@H](OC)[C@@H](C[C@H](O)COS(=O)(=O)c9ccc(C)cc9)O[C@H]8C[C@H]8O[C@@H](CC[C@@H]1O2)C[C@@H](C)C8=C)O[C@@H]7[C@@H]6O3)[C@H]5O4
2. C=C1C[C@@H]2CC[C@@]34C[C@@H]5O[C@@H]6C(O[C@H]7CC[C@H](CC(=O)C[C@@H]8[C@@H](OC)[C@@H](C[C@H](O)CN9CCCCC9)O[C@H]8C[C@H]8O[C@@H](CC[C@@H]1O2)C[C@@H](C)C8=C)O[C@@H]7[C@@H]6O3)[C@H]5O4
3. C=C1C[C@@H]2CC[C@@]34C[C@@H]5O[C@@H]6C(O[C@H]7CC[C@H](CC(=O)C[C@@H]8[C@@H](OC)[C@@H](C[C@H](O)COC(=O)Nc9ccccc9)O[C@H]8C[C@H]8O[C@@H](CC[C@@H]1O2)C[C@@H](C)C8=C)O[C@@H]7[C@@H]6O3)[C@H]5O4
4. C=C1C[C@@H]2CC[C@@]34C[C@@H]5O[C@@H]6C(O[C@H]7CC[C@H](CC(=O)C[C@@H]8[C@@H](OC)[C@@H](C[C@H](O)CSc9ccc(Cl)cc9)O[C@H]8C[C@H]8O[C@@H](CC[C@@H]1O2)C[C@@H](C)C8=C)O[C@@H]7[C@@H]6O3)[C@H]5O4
5. C=C1C[C@@H]2CC[C@@]34C[C@@H]5O[C@@H]6C(O[C@H]7CC[C@H](CC(=O)C[C@@H]8[C@@H](OC)[C@@H](C[C@H](O)CO)O[C@H]8C[C@H]8O[C@@H](CC[C@@H]1O2)C[C@@H](C)C8=C)O[C@@H]7[C@@H]6O3)[C@H]5O4

Result:
1. 0.03 µM
2. 0.01 µM
3. 0.065 µM
4. 0.2 µM
5. 0.038 µM

# map each molecule to its IC99
1. C=C1C[C@@H]2CC[C@@]34C[C@@H]5O[C@@H]6C(O[C@H]7CC[C@H](CC(=O)C[C@@H]8[C@@H](OC)[C@@H](C[C@H](O)CNC)O[C@H]8C[C@H]8O[C@@H](CC[C@@H]1O2)C[C@@H](C)C8=C)O[C@@H]7[C@@H]6O3)[C@H]5O4
2. C=C1C[C@@H]2CC[C@@]34C[C@@H]5O[C@@H]6C(O[C@H]7CC[C@H](CC(=O)C[C@@H]8[C@@H](OC)[C@@H](C[C@H](O)COS(C)(=O)=O)O[C@H]8C[C@H]8O[C@@H](CC[C@@H]1O2)C[C@@H](C)C8=C)O[C@@H]7[C@@H]6O3)[C@H]5O4
3. C=C1C[C@@H]2CC[C@@]34C[C@@H]5O[C@@H]6C(O[C@H]7CC[C@H](CC(=O)C[C@@H]8[C@@H](OC)[C@@H](C[C@H](O)CC#N)O[C@H]8C[C@H]8O[C@@H](CC[C@@H]1O2)C[C@@H](C)C8=C)O[C@@H]7[C@@H]6O3)[C@H]5O4
4. C=C1C[C@@H]2CC[C@@]34C[C@@H]5O[C@@H]6C(O[C@H]7CC[C@H](CC(=O)C[C@@H]8[C@@H](OC)[C@@H](C[C@@H](O)CO)O[C@H]8C[C@H]8O[C@@H](CC[C@@H]1O2)C[C@@H](C)C8=C)O[C@@H]7[C@@H]6O3)[C@H]5O4
5. C=C1C[C@@H]2CC[C@@]34C[C@@H]5O[C@@H]6C(O[C@H]7CC[C@H](CC(=O)C[C@@H]8[C@@H](OC)[C@@H](C[C@H](O)CNC(=O)c9ccc(Cl)cc9)O[C@H]8C[C@H]8O[C@@H](CC[C@@H]1O2)C[C@@H](C)C8=C)O[C@@H]7[C@@H]6O3)[C@H]5O4
6. C=C1C[C@@H]2CC[C@@]34C[C@@H]5O[C@@H]6C(O[C@H]7CC[C@H](CC(=O)C[C@@H]8[C@@H](OC)[C@@H](C[C@H](O)COC(=O)Nc9ccc(OC)cc9)O[C@H]8C[C@H]8O[C@@H](CC[C@@H]1O2)C[C@@H](C)C8=C)O[C@@H]7[C@@H]6O3)[C@H]5O4
7. C=C1C[C@@H]2CC[C@@]34C[C@@H]5O[C@@H]6C(O[C@H]7CC[C@H](CC(=O)C[C@@H]8[C@@H](OC)[C@@H](C[C@H](O)CN=[N+]=[N-])O[C@H]8C[C@H]8O[C@@H](CC[C@@H]1O2)C[C@@H](C)C8=C)O[C@@H]7[C@@H]6O3)[C@H]5O4

Result:
1: 0.01 µM; 2: 0.03 µM; 3: 0.03 µM; 4: 0.1 µM; 5: 0.02 µM; 6: 0.03 µM; 7: 0.03 µM
